System: iCell endothelial cells (human iPSC-derived ECs)
Test: High-content imaging cytotoxicity in iCell endothelial cells, 24 h
Assay type: cell-based
Conditions: Homo sapiens, Endothelial cell, iPSC-EC, 24 hr, 1.00 µM, 0.00 µM control = 100.00, read-out: endo.tc.24hrs
Where a name gives a salt, the structure may show the parent alone.
measured.parameter: viability at 1 µM (%)
Give bare numbers, in %.

1. O=S(=O)(O)Oc1cc(-c2ccccc2)ccc1Cl [3-yl PCB 3 sulfate] ... 102

Please give viability at 1 µM, item by item, for the list that follows.
1. Oc1ccc(O)c(-c2ccc(Cl)cc2)c1
2. Oc1cccc(-c2ccc(Cl)cc2)c1
3. Oc1ccc(-c2cccc(Cl)c2)cc1Cl
4. O=C1C=CC(=O)C(c2ccc(Cl)cc2)=C1
5. Oc1ccccc1-c1ccc(Cl)cc1
6. Oc1cc(Cl)c(-c2cc(Cl)ccc2Cl)cc1Cl
7. COc1ccc(-c2cccc(Cl)c2)cc1Cl

1. 99.2
2. 98.9
3. 97.1
4. 93.1
5. 100
6. 101
7. 99.8

Please give viability at 1 µM, item by item, for the list that follows.
1. Clc1cccc(-c2cccc(Cl)c2)c1
2. Oc1cc(Cl)cc(-c2cccc(Cl)c2)c1

1. 96.6
2. 102
